procedure.text: viability loss of HPDE-C7K cells – cell-based, fluorescence, HTS, primary screen (AID 431);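 note: 0% = DMSO solvent wells and 100% = doxorubicin-treated wells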
particulars: HPDE-C7K KRASV12 cells, Alamar Blue viability, 48 h; at 10 µM; stronger effect = higher value
The campaign covered roughly 63,000 compounds. About 1,100 (1.7%) were called active. Many of the other results were omitted from the sample, so actives are more common in it than they were. Potency and affinity values are given separately.
measurement.name: cytotoxicity (%)
Numbers only, in %.

> print(dat)
                                   molecule  measurement.name  measured
1    COc1ccc(OC)c(Nc2nc(-c3sc(N)nc3C)cs2)c1      cytotoxicity      37.6
2       CCOC(=O)/C=C(\C)Sc1cc(=O)oc2ccccc12      cytotoxicity      77.6
3  Cc1nc(SCc2c(F)cccc2Cl)c2c(=O)n(C)c(=O)n(C)c2n1      cytotoxicity     -12.8
4  CCCn1c(NC(=O)c2cccc(S(=O)(=O)N3CCCC3)c2)nc2ccccc21      cytotoxicity        54

Parameters: items (list). Returns: cytotoxicity for each item.
1. COC(=O)Nc1ccc(S(=O)(=O)N2CCN(C)CC2)cc1
2. N#Cc1c2c(c(=S)n(-c3ccccc3)c1N)CCCC2
3. Cc1nc(Sc2nnnn2-c2ccccc2)c(C#N)c(C)c1C
4. CCOC(=O)c1c(N)sn(-c2ccccc2)c1=S
5. O=C(Nc1nc2ccccc2n1CCN1CCCC1)c1ccc(Cl)cc1
6. Clc1ccc(-n2nnnc2Sc2ncnc3sccc23)cc1

Given back:
10.6
0.5
-8
13.3
62.1
-6.3

Parameters: items (list). Returns: cytotoxicity for each item.
1. C=CCNC(=O)c1ccccc1NS(=O)(=O)c1ccc(SC)cc1
2. CCCn1c(=C(C#N)C#N)s/c(=C2\C=Cc3ccccc3N2CC)c1=O
3. Nc1nnnn1/N=C/c1cccc(Oc2ccccc2)c1
4. O=C(NC1CCCC1)C1CC1c1ccccc1 (stereo unspecified)
5. Cc1cc(C)n(CC(O)COCc2ccco2)n1 (stereo unspecified)
6. COc1ccc(C2=NOC(Cn3c(Cc4ccc(Cl)cc4)nc4c3c(=O)n(C)c(=O)n4C)C2)cc1 (stereo unspecified)

Given back:
1: 26.3; 2: 6; 3: -6.8; 4: 17.8; 5: -7.5; 6: 1.7

Parameters: items (list). Returns: cytotoxicity for each item.
1. Cc1cc(C(=O)NCCCN2CCOCC2)n(-c2ccccc2)n1
2. CCOC(=O)Oc1ccc2oc(=O)cc(C)c2c1
3. COc1cccc(Nc2nc(-c3sc(N)nc3C)cs2)c1
4. CCCn1c(NC(=O)c2ccc(C)cc2)nc2ccccc21
5. COc1ccc2[nH]c(=O)c(CN(C(=O)COc3ccccc3)C(C)C)cc2c1
6. CCOC(=O)Nc1cc(=O)c2ccccc2o1
7. CCCn1c(Sc2nnnn2-c2ccccc2)n[nH]c1=O

Given back:
[-11.4, 10.2, 60.7, -46.1, -31.9, 38.2, -14.1]

###

procedure.text: viability loss of HPDE-C7K cells – cell-based, fluorescence, HTS, primary screen (AID 431);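 note: 0% = DMSO solvent wells and 100% = doxorubicin-treated wells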
particulars: HPDE-C7K KRASV12 cells, Alamar Blue viability, 48 h; at 10 µM; stronger effect = higher value
The whole screen tested about 63,000 compounds, of which about 1,100 (1.7%) were called active. For the sample, actives were picked, then their nearest neighbours and some compounds at random. Potency and affinity values are given separately.
measurement.name: cytotoxicity (%)
Answers are plain numbers, in %.

> print(dat)
                                   molecule  measured
1  COC(=O)COc1ccc(NC(=O)C2CCCO2)cc1 (configuration not stated)        -3
2               COc1ccc(C(=O)n2cnc(N)n2)cc1       6.1
3              O=C(Nc1ccccn1)c1ccc2ccccc2n1      -3.6
4          Nc1nc(NC(=O)c2ccco2)nn1-c1ccccc1       4.5
5                       OC1C[N+]2(CCCCC2)C1      -0.4
6             CCCCOc1ccc(C(=O)N2CCCCCC2)cc1      -8.5

Let us move to another entry and its cytotoxicity.
Asked: Field request: cytotoxicity | item: `CCOc1cccc(-c2nnc3sc(COc4ccc(Cl)cc4)nn23)c1`
Given back: 24.5

###

Kindly supply the reported cytotoxicity values for the records listed here.
procedure.text: viability loss of HPDE-C7K cells – cell-based, fluorescence, HTS, primary screen (AID 431);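 note: 0% = DMSO solvent wells and 100% = doxorubicin-treated wells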
particulars: HPDE-C7K KRASV12 cells, Alamar Blue viability, 48 h; at 10 µM; stronger effect = higher value
Out of some 63,000 compounds screened, about 1,100 (1.7%) were called active. For the sample, actives were picked, then their nearest neighbours and some compounds at random. Entries with a potency or affinity are not part of this list.
Numbers only, in %.

Some molecules with known cytotoxicity results, for comparison:
> print(dat)
                                   molecule  measurement.name  units.text  measured
1  COc1ccc(-c2cc(C(F)(F)F)nc(N3CCCCC3)n2)cc1OC      cytotoxicity           %      -2.6
2  O=C(CCNC(=O)Cn1ccc2ccccc2c1=O)NCCCN1CCN(c2ccccc2F)CC1      cytotoxicity           %     -16.9
3  Cc1cc(C)c2c(=O)n(CC(=O)NCCCN3CCN(c4ccccc4F)CC3)sc2n1      cytotoxicity           %      82.2
4  COC(=O)c1c(C)[nH]c(C(=O)C(C)Sc2nnc(-c3cc(OC)c(OC)c(OC)c3)o2)c1C (stereo not given)      cytotoxicity           %      11.4

Let us move to another entry and its cytotoxicity.
Asked: Field request: cytotoxicity | item: `Cc1cc(C)c2c(=O)n(CC(=O)NCCCN3CCOCC3)sc2n1`
Given back: 20.5

###

Kindly supply the reported cytotoxicity values for the records listed here.
procedure.text: viability loss of HPDE-C7K cells – cell-based, fluorescence, HTS, primary screen (AID 431);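 note: 0% = DMSO solvent wells and 100% = doxorubicin-treated wells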
particulars: HPDE-C7K KRASV12 cells, Alamar Blue viability, 48 h; at 10 µM; stronger effect = higher value
Among all 63,000 compounds or so, about 1,100 (1.7%) were called active. For the sample, actives were picked, then their nearest neighbours and some compounds at random. Results with a measured potency or affinity are listed apart.
Numbers only, in %.

Some compounds with known cytotoxicity results, for comparison:
> print(dat)
                                   compound  measurement.name  units.text  measured
1  CC(C)c1nc2sc3c(NCc4ccco4)ncnc3c2c2c1COC(C)(C)C2      cytotoxicity           %     -13.3
2  Cc1ccc(/C(O)=C2\C(=O)C(=O)N(c3cc(C)on3)C2c2cccc(Br)c2)cc1 (configuration not stated)      cytotoxicity           %      48.2
3  Cc1ccc(/C(O)=C2\C(=O)C(=O)N(c3cc(C)on3)C2c2cccc(Cl)c2)cc1 (configuration not stated)      cytotoxicity           %      55.9
4  Cc1cc(N2C(=O)C(=O)/C(=C(/O)c3ccc(F)cc3)C2c2ccc(Cl)cc2)no1 (configuration not stated)      cytotoxicity           %      37.6
5    COc1ccc(OC)c(NC(=O)c2cnc3ccccn3c2=O)c1      cytotoxicity           %      12.6
6         Cc1noc(C)c1COC(=O)CCc1nc2ccccc2s1      cytotoxicity           %      -2.7

Parameters: items (list). Returns: cytotoxicity for each item.
1. COc1cccc(C2/C(=C(\O)c3ccc(OC)c(OC)c3)C(=O)C(=O)N2c2cc(C)on2)c1 (configuration not stated)
2. C/C=C(/C(=C/C)c1ccc(O)cc1)c1ccc(O)cc1
3. CN(C)CCC(=O)c1ccc(Cl)cc1
4. Cc1nc(SCC(=O)NCc2ccco2)c2c3c(sc2n1)CCCC3
5. Cc1cc(N2C(=O)C(=O)/C(=C(/O)c3ccccc3)C2c2cccc(Br)c2)no1 (configuration not stated)
6. O=C(NCC12CC3CC(CC(C3)C1)C2)c1nc2ncccn2n1

Given back:
19.3
111
13.3
2.5
0.9
7.1

Parameters: items (list). Returns: cytotoxicity for each item.
1. CCC(=O)c1ccc(O)cc1
2. C=C(c1ccc(O)cc1)c1ccc(O)cc1
3. Cc1nnc2n(Cc3ccccc3)c(=O)c3c4c(sc3n12)CN(Cc1ccccc1)CC4
4. COC(=O)c1ccc(CN(c2ccc(C)cc2)S(=O)(=O)c2ccc3c(c2)OCCO3)o1
5. S=c1[nH]nc(Cc2c[nH]c3ccccc23)o1
6. O=C(/C=C/N1CCOCC1)c1coc2ccccc12

Given back:
-12
12.5
1.6
7.1
1.2
-4.5

Parameters: items (list). Returns: cytotoxicity for each item.
1. COc1cc2c(cc1OC)C(/C(C#N)=N\O)=NC(C)(C)C2
2. O=C(NC1CCCCC1)C1CCCN1C(=O)NCc1ccccc1 (configuration not stated)

Given back:
1: 7; 2: 11.8

Parameters: items (list). Returns: cytotoxicity for each item.
1. Cc1cc(N2C(=O)C(=O)/C(=C(/O)c3ccc(F)cc3)C2c2ccc(F)cc2)no1 (configuration not stated)
2. Cc1cc(N2C(=O)C(=O)/C(=C(/O)c3ccc(F)cc3)C2c2cccc(Br)c2)no1 (configuration not stated)

Given back:
1: 16.6; 2: 72.5
